PROCEDURE DETAILS: NCI Yeast Anticancer Drug Screen. Data for the rad50 strain (AID 155);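 note: 0% = growth of vehicle-only cultures of the same strain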
ASSAY CONTEXT: S. cerevisiae rad50 strain growth inhibition; at 50.0 µM; active compounds read high
Method: Growth inhibition of yeast strains with defined genetic alterations is measured as a screen for potential anti-cancer activity. Selected strains with alterations in DNA damage repair or cell cycle control were exposed to compounds and growth inhibition was measured relative to vehicle treated controls. The strain used in this assay is rad50
About 79,000 compounds went through this panel and 15% of them were active in at least one assay; those are over-represented in the sample as a whole.
PROPERTY NAME: growth inhibition (%)

MOLECULE	PROPERTY NAME	QUANTITY UNIT	REPORTED MEASUREMENT
Cn1nc2ccc3nccc(NCCNCCO)c3c2n1	growth inhibition	%	-3.65
CC(=O)c1cc(CC2Cc3cc4c(cc3C2=O)CCC4)cc2c1CCC2 (configuration not stated)	growth inhibition	%	-37.5
COc1ncc(/C=C2\OC(=O)c3ccccc32)c(OC)n1	growth inhibition	%	1.6
CC12CCC(=O)C=C1CCC1C2C(=O)CC2(C)C1CCC2(O)C(=O)Cn1cc(F)c(=O)[nH]c1=O (configuration not stated)	growth inhibition	%	12.1
O=C(O)C(Cc1ccc(OS(=O)(=O)Cc2ccccc2)cc1)NS(=O)(=O)Cc1ccccc1 (configuration not stated)	growth inhibition	%	29.9
O=S(=O)(N1CCCCC1)N1CCCCC1	growth inhibition	%	2.3
CN/C=C(/OCc1ccccc1)c1ccc(O)c(O)c1	growth inhibition	%	2.2
CC(O)CC(=O)c1ccc(O)cc1 (configuration not stated)	growth inhibition	%	-42
COc1cc2c(cc1Cc1cc(OC)c(OC)c(OC)c1)OCO2	growth inhibition	%	4.35
CCOP(=O)(OCC)/C(C#N)=C/c1c(C)[nH]c2ccccc12	growth inhibition	%	0.5
Cc1[nH]c(=O)[nH]c(=O)c1C	growth inhibition	%	4.05
CC1CCCN(C(=O)Nc2ccccc2)C1 (configuration not stated)	growth inhibition	%	14.4
